assay: soluble on expression in E. coli; label from the status in PepcDB or PDB records

{"item.sequence": "MSSQSIDDKFMSITQMKNLIHYVKKNDALSHLCIYILIITGSRFKPVQHLRYEDLNFKKSCIHLNDTKNKYSKRNVKVRIKDLEYIQSVINKHPINQNGYIFHNFINFISYSAINDVLVRFCLKYKYDKYTLKSLRHTHCSYLLAKGISIQYISKRLGHADIHTTLKIYSHLIKEFEDSENSLIEKNLNDLFSDLEHHHHHH", "soluble on expression in E. coli": "not soluble"}
{"item.sequence": "MSPLSSGLLGDLDPTSDRAVFRQIADQLREAIDRGRFREGEKLPSEAELVDHYGVSRMTVRNSFSILQGEGLVHAEHGKGVFVRPRPPVRRLASDRFARRHREQGKSAFIVEADAVGSHPKVDSLEVKEEKASQDISTRLGSVRRVLARRRRYLLDGRPVEFATSYLPLDIARGTQIAEPNPGPGGIYARLEELGHRLDHFEEEIRARMPSPAEVKTLHLAAGVPVIHLIRTAFDTEGRAVEVCDTVMAADAYVLSYQLPAT", "soluble on expression in E. coli": "not soluble"}
{"item.sequence": "MIEVKHLKTLQALRNCGSLAAAAATLHQTQSALSHQFSDLEQRLGFRLFVRKSQPLRFTPQGEILLQLANQVLPQISQALQACNEPQQTRLRIAIECHSCIQWLTPALENFHKNWPQVEMDFKSGVTFDPQPALQQGELDLVMTSDILPRSGLHYSPMFDYEVRLVLAPDHPLAAKTRITPEDLASETLLIYPVQRSRLDVWRHFLQPAGVSPSLKSVDNTLLLIQMVAARMGIAALPHWVVESFERQGLVVTKTLGEGLWSRLYAAVRDGEQRQPVTEAFIRSARNHACDHLPFVKSAERPTYDAPTVRPGSPARL", "soluble on expression in E. coli": "soluble"}
{"item.sequence": "MIYEIKFAHGESNVFAISDIELAPQTEVILRSDKGNFYGKIVREISEEANLEIHHTIVREVNEDDLQVIAKLEERSKQAKDKVRQLVIEQGLEMKIIDVAYNFDQMQLFISFTAENRVDFRLLLRELATTFRIRIELRQIGPRDAAKIHGGLGPCGRPLCCSEFVYEFPNVSIKMAKNQNLSLKQNKLNGLCGRLMCCLTYEDSFYKEAQQLFPDFGEFVTTSEGKGKVVGLNVLKNRVKIRFGEYSKDFELAEIEVNHGLEHHHHHH", "soluble on expression in E. coli": "soluble"}
{"item.sequence": "MKKQPGQQPLRSLSLTSAAKSLEEVEPEDDSKKGEPHAKAAGFGRGGGGGKRLPAARSTPMVIPNQVAAMPVQMTGFVQLATNNILSAIAHTNSLMVVQCIEPLEIFTGFETPNRYVVHDMYCRPLLYCMERSNVFARQYHGNNRKLSASTLDSCRRCSPMRTLTLFTFQWTCRQS", "soluble on expression in E. coli": "soluble"}
{"item.sequence": "MGSDKIHHHHHHMTFEQLLYAVELANHQTLQETADLLHISKSGLSQSISQLENELGVKLFKRTRYGSKLTAQGKELLPLIKQMLSQGVSLTKKAHNLGKSGQIETVRVAYANTMLKPFLNEYLAMYQDVPTKFNMEISQETVTQIIDGIRSHRINLGFIAINDSNKAEIHGLEFKPVHVGHLKLFLSPDNQLVKKQKINIEDLQKQRFALFNDPYNDRIFEHLQYLCGPLKTVIKTDDGWAMYTTIKKANAVALVRDWQTSYSSYEPLQKLPSLDISNLIDDRFYLGWLTNPKYTTSRYTHRYTQEFIKHVDAQIKEC", "soluble on expression in E. coli": "not soluble"}
